System: NCI-H596
ASSAY OVERVIEW: relative viability (nuclei count vs DMSO), 5 days (fraction); higher = more cells survive
COND: first compound 500 µM
Just a reminder that ties go to no (0): only relative viability strictly below 0.04 counts as yes (1).

Previously resolved entries follow.
O=C(O)CCCCC(CCSCc1ccccc1)SCc1ccccc1 (stereo unspecified) [CPI-613] + N=C(N)NC(=N)NCCc1ccccc1 [Phenformin] (partner 250 µM)
yes (1)
O=C(O)CCCCC(CCSCc1ccccc1)SCc1ccccc1 (stereo unspecified) [CPI-613] + Nc1nc2[nH]cc(CCc3ccc(C(=O)N[C@@H](CCC(=O)O)C(=O)O)cc3)c2c(=O)[nH]1 [Pemetrexed] (partner 0.2 µM)
yes (1)
O=C(O)CCCCC(CCSCc1ccccc1)SCc1ccccc1 (stereo unspecified) [CPI-613] + COc1cc2c(Oc3ccc(NC(=O)C4(C(=O)Nc5ccc(F)cc5)CC4)cc3F)ccnc2cc1OCCCN1CCOCC1 [Foretinib] (partner 0.25 µM)
yes (1)

[in] Please check: relative viability for O=C(O)CCCCC(CCSCc1ccccc1)SCc1ccccc1 (stereo unspecified) [CPI-613] + O=C(CCCCCCC(=O)Nc1ccccc1)NO [Vorinostat] (partner 1 µM) , strictly under 0.04 or not?
[out] no (0)

[in] Please check: relative viability for O=C(O)CCCCC(CCSCc1ccccc1)SCc1ccccc1 (stereo unspecified) [CPI-613] + COc1cccc2cc(-c3nc([C@H]4CC[C@H](C(=O)O)CC4)n4ncnc(N)c34)[nH]c12 [OSI-027] (partner 0.5 µM) , strictly under 0.04 or not?
[out] no (0)

[in] Please check: relative viability for O=C(O)CCCCC(CCSCc1ccccc1)SCc1ccccc1 (stereo unspecified) [CPI-613] + CC(C)C[C@H](NC(=O)[C@H](Cc1ccccc1)NC(=O)c1cnccn1)B(O)O [Bortezomib] (partner 0.002 µM) , strictly under 0.04 or not?
[out] no (0)

###

System: NCI-H650
ASSAY OVERVIEW: relative viability (nuclei count vs DMSO), 5 days (fraction); higher = more cells survive
COND: first compound 0.1265 µM
ENDPOINT NAME: relative viability
API note: the answer field is a bare number with no unit suffix.

Some molecules with known relative viability results, for comparison:
Cc1sc2c(c1C)C(c1ccc(Cl)cc1)=N[C@@H](CC(=O)OC(C)(C)C)c1nnc(C)n1-2 [JQ1] + Nc1nc2[nH]cc(CCc3ccc(C(=O)N[C@@H](CCC(=O)O)C(=O)O)cc3)c2c(=O)[nH]1 [Pemetrexed] (partner 0.2 µM)
0.664
Cc1sc2c(c1C)C(c1ccc(Cl)cc1)=N[C@@H](CC(=O)OC(C)(C)C)c1nnc(C)n1-2 [JQ1] + O=C(CCCCCCC(=O)Nc1ccccc1)NO [Vorinostat] (partner 1 µM)
0.295
Cc1sc2c(c1C)C(c1ccc(Cl)cc1)=N[C@@H](CC(=O)OC(C)(C)C)c1nnc(C)n1-2 [JQ1] + CCNC(=O)c1noc(-c2cc(C(C)C)c(O)cc2O)c1-c1ccc(CN2CCOCC2)cc1 [Luminespib] (partner 0.01 µM)
0.7

[in] Which relative viability is reported for this molecule? Cc1sc2c(c1C)C(c1ccc(Cl)cc1)=N[C@@H](CC(=O)OC(C)(C)C)c1nnc(C)n1-2 [JQ1] + N=C(N)NC(=N)NCCc1ccccc1 [Phenformin] (partner 250 µM)
[out] 0.358

[in] Which relative viability is reported for this molecule? Cc1sc2c(c1C)C(c1ccc(Cl)cc1)=N[C@@H](CC(=O)OC(C)(C)C)c1nnc(C)n1-2 [JQ1] + COc1cccc2cc(-c3nc([C@H]4CC[C@H](C(=O)O)CC4)n4ncnc(N)c34)[nH]c12 [OSI-027] (partner 0.5 µM)
[out] 0.41

###

Tested on: NCI-H2347
ASSAY OVERVIEW: relative viability (nuclei count vs DMSO), 5 days (fraction); higher = more cells survive
COND: first compound 0.02 µM
ENDPOINT NAME: relative viability

[in] Which relative viability is reported for this compound? CC(=O)O[C@@]12CO[C@@H]1C[C@H](O)[C@@]1(C)C(=O)[C@H](O)C3=C(C)[C@@H](OC(=O)[C@H](O)[C@@H](NC(=O)OC(C)(C)C)c4ccccc4)C[C@@](O)([C@@H](OC(=O)c4ccccc4)[C@H]21)C3(C)C [Docetaxel] + Cc1nc(NC(=O)N2CCC[C@H]2C(N)=O)sc1-c1ccnc(C(C)(C)C(F)(F)F)c1 [Alpelisib] (partner 2 µM)
[out] 0.438

###

Tested on: NCI-H1666
ASSAY OVERVIEW: relative viability (nuclei count vs DMSO), 5 days (fraction); higher = more cells survive
COND: first compound 5 µM
ENDPOINT NAME: relative viability

O=C(O)CCCCC(CCSCc1ccccc1)SCc1ccccc1 (stereo not drawn) [CPI-613] + Nc1ncn([C@H]2C[C@H](O)[C@@H](CO)O2)c(=O)n1 [Decitabine] (partner 2 µM)
0.676

[in] Which relative viability is reported for this compound? O=C(O)CCCCC(CCSCc1ccccc1)SCc1ccccc1 (stereo not drawn) [CPI-613] + N=C(N)NC(=N)NCCc1ccccc1 [Phenformin] (partner 250 µM)
[out] 0.56

[in] Which relative viability is reported for this compound? O=C(O)CCCCC(CCSCc1ccccc1)SCc1ccccc1 (stereo not drawn) [CPI-613] + CC(=O)c1c(C)c2cnc(Nc3ccc(N4CCNCC4)cn3)nc2n(C2CCCC2)c1=O [Palbociclib] (partner 0.5 µM)
[out] 0.68

###

System: LU99A
ASSAY OVERVIEW: relative viability (nuclei count vs DMSO), 5 days (fraction); higher = more cells survive
COND: first compound 0.05 µM
ENDPOINT NAME: relative viability
API note: the answer field is a bare number with no unit suffix.

[in] Which relative viability is reported for this molecule? COc1cc2nccc(Oc3ccc(NC(=O)Nc4cc(C)on4)c(Cl)c3)c2cc1OC [Tivozanib] + Cc1nc(Nc2ncc(C(=O)Nc3c(C)cccc3Cl)s2)cc(N2CCN(CCO)CC2)n1 [Dasatinib] (partner 0.075 µM)
[out] 0.656

[in] Which relative viability is reported for this molecule? COc1cc2nccc(Oc3ccc(NC(=O)Nc4cc(C)on4)c(Cl)c3)c2cc1OC [Tivozanib] + CC(C)C[C@H](NC(=O)[C@H](Cc1ccccc1)NC(=O)c1cnccn1)B(O)O [Bortezomib] (partner 0.002 µM)
[out] 1.29

[in] Which relative viability is reported for this molecule? Nc1ccn([C@@H]2O[C@H](CO)[C@@H](O)[C@@H]2O)c(=O)n1 [Cytarabine] + CS(=O)(=O)CCNCc1ccc(-c2ccc3ncnc(Nc4ccc(OCc5cccc(F)c5)c(Cl)c4)c3c2)o1 [Lapatinib] (partner 2 µM)
[out] 1.02

###

System: 201T
ASSAY OVERVIEW: relative viability (nuclei count vs DMSO), 5 days (fraction); higher = more cells survive
COND: first compound 15.81 µM
Just a reminder that ties go to condition not met: only relative viability strictly below 0.7 counts as condition met.

Previously resolved entries follow.
O=C(O)CCCCC(CCSCc1ccccc1)SCc1ccccc1 (stereo not given) [CPI-613] + CCNC(=O)c1noc(-c2cc(C(C)C)c(O)cc2O)c1-c1ccc(CN2CCOCC2)cc1 [Luminespib] (partner 0.01 µM)
condition not met
O=C(O)CCCCC(CCSCc1ccccc1)SCc1ccccc1 (stereo not given) [CPI-613] + O=C(CCCCCCC(=O)Nc1ccccc1)NO [Vorinostat] (partner 1 µM)
condition not met
O=C(O)CCCCC(CCSCc1ccccc1)SCc1ccccc1 (stereo not given) [CPI-613] + NC(=O)Nc1cc(-c2cccc(F)c2)sc1C(=O)N[C@H]1CCCNC1 [AZD7762] (partner 0.2 µM)
condition met

Could you now look at the following molecule, please?
[in] Please check: relative viability for O=C(O)CCCCC(CCSCc1ccccc1)SCc1ccccc1 (stereo not given) [CPI-613] + CS(=O)(=O)N1CCN(Cc2cc3nc(-c4cccc5[nH]ncc45)nc(N4CCOCC4)c3s2)CC1 [Pictilisib] (partner 1 µM) , strictly under 0.7 or not?
[out] condition met

###

Tested on: NCI-H1755
ASSAY OVERVIEW: relative viability (nuclei count vs DMSO), 5 days (fraction); higher = more cells survive
COND: first compound 0.253 µM
Just a reminder that ties go to rule not met: only relative viability strictly below 0.8 counts as rule met.

Previously resolved entries follow.
Cc1cnc(-c2cnc(NCCNc3ccc(C#N)cn3)nc2-c2ccc(Cl)cc2Cl)[nH]1 + O=C(CCCCCCC(=O)Nc1ccccc1)NO [Vorinostat] (partner 1 µM)
rule met
O=c1[nH]c2ccccc2n1C1CCN(CCCC(c2ccc(F)cc2)c2ccc(F)cc2)CC1 [Pimozide] + CCNC(=O)c1noc(-c2cc(C(C)C)c(O)cc2O)c1-c1ccc(CN2CCOCC2)cc1 [Luminespib] (partner 0.01 µM)
rule met
O=c1[nH]c2ccccc2n1C1CCN(CCCC(c2ccc(F)cc2)c2ccc(F)cc2)CC1 [Pimozide] + CC(=O)Nc1cccc(-n2c(=O)n(C3CC3)c(=O)c3c(Nc4ccc(I)cc4F)n(C)c(=O)c(C)c32)c1 [Trametinib] (partner 0.02 µM)
rule met
O=c1[nH]c2ccccc2n1C1CCN(CCCC(c2ccc(F)cc2)c2ccc(F)cc2)CC1 [Pimozide] + O=C(CCCCCCC(=O)Nc1ccccc1)NO [Vorinostat] (partner 1 µM)
rule met
Cc1cnc(-c2cnc(NCCNc3ccc(C#N)cn3)nc2-c2ccc(Cl)cc2Cl)[nH]1 + Nc1ncn([C@H]2C[C@H](O)[C@@H](CO)O2)c(=O)n1 [Decitabine] (partner 2 µM)
rule met

Could you now look at the following compound, please?
[in] Please check: relative viability for Cc1cnc(-c2cnc(NCCNc3ccc(C#N)cn3)nc2-c2ccc(Cl)cc2Cl)[nH]1 + C[C@@H](Oc1cc(-c2cnn(C3CCNCC3)c2)cnc1N)c1c(Cl)ccc(F)c1Cl [Crizotinib] (partner 1 µM) , strictly under 0.8 or not?
[out] rule not met
